- experimental.details: self-splicing fitness, log relative to wild type (ln ratio); higher = more splicing; Tetrahymena group I intron in knt gene, E. coli kanamycin selection, DiMSum; sequences stand for … in CUCUCU…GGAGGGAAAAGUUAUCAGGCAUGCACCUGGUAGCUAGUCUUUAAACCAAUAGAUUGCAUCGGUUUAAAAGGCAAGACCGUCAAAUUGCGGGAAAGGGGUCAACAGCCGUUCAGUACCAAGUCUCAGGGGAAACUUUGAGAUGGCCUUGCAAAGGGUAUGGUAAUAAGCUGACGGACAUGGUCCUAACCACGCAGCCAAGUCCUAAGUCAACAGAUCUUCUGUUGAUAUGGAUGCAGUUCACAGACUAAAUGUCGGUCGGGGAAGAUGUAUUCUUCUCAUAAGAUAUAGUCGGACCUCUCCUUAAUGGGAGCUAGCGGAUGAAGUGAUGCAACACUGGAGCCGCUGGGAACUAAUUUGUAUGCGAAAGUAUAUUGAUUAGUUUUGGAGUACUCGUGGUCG;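 note: selection with 25 µg/mL kanamycin versus none on LB agar overnight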
- condition.info: 37 °C
measure: self-splicing fitness (ln)
Answer with the value's number alone.

| sequence.code | self-splicing fitness (ln) |
| --- | --- |
| AGCCAGCAAUAUUACGAUGA | -2.35 |
| CUGCAGCAAUAUUACGUAGG | -0.512 |
| CGGUAGCAAUAUUACGAAGG | 0.565 |
| ACGAAGCAAUAUUACGGAGG | -1.69 |
| CUUUAGCAAUAUUACGGAAG | -2.8 |
| GAAUAGCAAUAUUACGUGGC | -1.34 |
| ACGCAGCAAUAUUACGCUCC | -0.96 |

With those in mind, consider the next sequence.
## Task Which self-splicing fitness (ln) reading was recorded for the sequence "UAGUAGCAAUAUUACGAGAG" ?
## Result -2.67

----------
- experimental.details: self-splicing fitness, log relative to wild type (ln ratio); higher = more splicing; Tetrahymena group I intron in knt gene, E. coli kanamycin selection, DiMSum; sequences stand for … in CUCUCU…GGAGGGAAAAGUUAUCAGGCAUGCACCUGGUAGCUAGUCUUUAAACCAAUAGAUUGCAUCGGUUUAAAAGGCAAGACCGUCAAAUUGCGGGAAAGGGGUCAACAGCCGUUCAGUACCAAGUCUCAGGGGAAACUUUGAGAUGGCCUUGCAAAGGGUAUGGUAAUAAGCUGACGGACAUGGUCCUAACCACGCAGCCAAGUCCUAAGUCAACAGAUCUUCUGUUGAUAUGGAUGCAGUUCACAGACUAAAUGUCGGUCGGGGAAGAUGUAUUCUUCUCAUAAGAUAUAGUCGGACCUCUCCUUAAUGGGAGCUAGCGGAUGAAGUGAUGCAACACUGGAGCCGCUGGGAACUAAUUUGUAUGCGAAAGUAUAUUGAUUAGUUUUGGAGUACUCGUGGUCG
- condition.info: 30 °C
Criterion: self-splicing fitness (ln) meeting or surpassing -3. Met: 1. Not met: -1.

Before answering, review these 8 worked examples.
| sequence.code | classification |
| --- | --- |
| GGUUAGCAAUAUUACGCCUC | 1 |
| GGUCAGCAAUAUUACGUAUG | 1 |
| GAUCAGCAAUAUUACGUUUG | 1 |
| AAAAAGCAAUAUUACGGCCG | 1 |
| ACUCAGCAAUAUUACGUCUU | 1 |
| CCGAAGCAAUAUUACGGUUC | -1 |
| GAGCAGCAAUAUUACGUUAA | -1 |
| GUUCAGCAAUAUUACGAAAG | 1 |

Here is another sequence to look at.
## Task Item "CAACAGCAAUAUUACGCAAU" with self-splicing fitness (ln) of -3 or above?
## Result 1

----------
- experimental.details: self-splicing fitness, log relative to wild type (ln ratio); higher = more splicing; Tetrahymena group I intron in knt gene, E. coli kanamycin selection, DiMSum; sequences stand for … in CUCUCU…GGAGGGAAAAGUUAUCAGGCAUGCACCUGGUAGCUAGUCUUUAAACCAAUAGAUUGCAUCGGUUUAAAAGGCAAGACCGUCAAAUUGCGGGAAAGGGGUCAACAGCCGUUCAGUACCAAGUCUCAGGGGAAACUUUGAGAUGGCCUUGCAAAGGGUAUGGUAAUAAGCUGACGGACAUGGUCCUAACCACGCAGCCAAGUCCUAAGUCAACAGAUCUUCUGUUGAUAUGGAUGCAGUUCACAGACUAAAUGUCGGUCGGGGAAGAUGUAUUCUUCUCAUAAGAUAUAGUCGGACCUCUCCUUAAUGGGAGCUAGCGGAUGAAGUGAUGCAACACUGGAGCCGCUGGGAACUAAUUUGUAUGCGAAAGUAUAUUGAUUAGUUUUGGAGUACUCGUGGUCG
- condition.info: 37 °C
Criterion: self-splicing fitness (ln) meeting or surpassing -1. Met: condition met. Not met: condition not met.

Before answering, review these 3 worked examples.
| sequence.code | classification |
| --- | --- |
| AAUAAGCAAUAUUACGUGGU | condition not met |
| CAUGAGCAAUAUUACGAUAG | condition met |
| GUGAAGCAAUAUUACGUAAA | condition not met |

Here is another sequence to look at.
## Task Item "GUCUAGCAAUAUUACGAUCU" with self-splicing fitness (ln) of -1 or above?
## Result condition met

----------
- experimental.details: self-splicing fitness, log relative to wild type (ln ratio); higher = more splicing; Tetrahymena group I intron in knt gene, E. coli kanamycin selection, DiMSum; sequences stand for … in CUCUCU…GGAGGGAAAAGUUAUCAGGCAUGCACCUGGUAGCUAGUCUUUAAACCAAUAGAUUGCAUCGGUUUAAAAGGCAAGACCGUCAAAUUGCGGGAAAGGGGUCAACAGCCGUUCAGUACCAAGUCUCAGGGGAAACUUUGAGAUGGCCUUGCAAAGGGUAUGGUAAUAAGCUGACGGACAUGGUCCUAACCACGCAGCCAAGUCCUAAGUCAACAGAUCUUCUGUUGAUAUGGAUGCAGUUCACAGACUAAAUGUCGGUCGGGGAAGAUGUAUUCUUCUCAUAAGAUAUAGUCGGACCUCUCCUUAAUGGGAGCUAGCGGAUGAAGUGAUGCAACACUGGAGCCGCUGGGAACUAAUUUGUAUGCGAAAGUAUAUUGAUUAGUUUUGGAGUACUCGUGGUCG
- condition.info: 30 °C
measure: self-splicing fitness (ln)
Answer with the value's number alone.

// worked examples, self-splicing fitness (ln) included
| sequence.code | self-splicing fitness (ln) |
| --- | --- |
| AUAGAGCAAUAUUACGAACU | -0.774 |
| ACGCAGCAAUAUUACGUCCA | -1.28 |
| GUUUAGCAAUAUUACGCGGC | -1.26 |
| CGCUAGCAAUAUUACGUUGC | -3.3 |
| AGCGAGCAAUAUUACGAUGA | -2.57 |

## Task Which self-splicing fitness (ln) reading was recorded for the sequence "AAUAAGCAAUAUUACGACCA" ?
## Result -0.614

## Task Which self-splicing fitness (ln) reading was recorded for the sequence "GCGUAGCAAUAUUACGGUGU" ?
## Result -3.33

## Task Which self-splicing fitness (ln) reading was recorded for the sequence "CAAUAGCAAUAUUACGCUUU" ?
## Result -4.34

## Task Which self-splicing fitness (ln) reading was recorded for the sequence "AUCCAGCAAUAUUACGUACG" ?
## Result -1.7

## Task Which self-splicing fitness (ln) reading was recorded for the sequence "UGUUAGCAAUAUUACGAUUA" ?
## Result -0.127

## Task Which self-splicing fitness (ln) reading was recorded for the sequence "CUCCAGCAAUAUUACGAUAG" ?
## Result -1.6

## Task Which self-splicing fitness (ln) reading was recorded for the sequence "CCUAAGCAAUAUUACGCGUA" ?
## Result -1.88

----------
# self-splicing fitness (ln) per entry
- experimental.details: self-splicing fitness, log relative to wild type (ln ratio); higher = more splicing; Tetrahymena group I intron in knt gene, E. coli kanamycin selection, DiMSum; sequences stand for … in CUCUCU…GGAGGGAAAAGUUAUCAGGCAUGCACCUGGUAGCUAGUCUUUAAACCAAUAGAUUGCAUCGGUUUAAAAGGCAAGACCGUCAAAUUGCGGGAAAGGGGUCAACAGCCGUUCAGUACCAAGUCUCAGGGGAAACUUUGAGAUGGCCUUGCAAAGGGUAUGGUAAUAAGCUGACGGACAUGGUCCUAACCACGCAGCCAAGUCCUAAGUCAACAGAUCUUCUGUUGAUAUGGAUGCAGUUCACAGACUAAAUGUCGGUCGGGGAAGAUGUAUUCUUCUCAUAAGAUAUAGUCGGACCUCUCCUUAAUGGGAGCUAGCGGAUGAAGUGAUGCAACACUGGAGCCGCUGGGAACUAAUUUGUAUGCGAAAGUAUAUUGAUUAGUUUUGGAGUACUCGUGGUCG
- condition.info: 30 °C
Answer with the value's number alone.

| sequence.code | self-splicing fitness (ln) |
| --- | --- |
| CCUAAGCAAUAUUACGAGUC | -3.77 |
| AAUAAGCAAUAUUACGAGUG | -1.05 |
| AGGAAGCAAUAUUACGGCUG | -0.459 |
| ACAUAGCAAUAUUACGAGUC | -3.91 |
| CGCAAGCAAUAUUACGGCAG | -0.448 |

## Task Which self-splicing fitness (ln) reading was recorded for the sequence "UCCCAGCAAUAUUACGUAAC" ?
## Result -2.45

## Task Which self-splicing fitness (ln) reading was recorded for the sequence "GACUAGCAAUAUUACGGUCU" ?
## Result -3.36

## Task Which self-splicing fitness (ln) reading was recorded for the sequence "AAGUAGCAAUAUUACGAGCC" ?
## Result -2.87

## Task Which self-splicing fitness (ln) reading was recorded for the sequence "ACCGAGCAAUAUUACGCCCG" ?
## Result -2.05

The origin of these recorded values is the supplement of paper PMC7877785.
